Values from the supplement of paper PMC10307832

- Test system: NCI-H647
- TEST_METHOD_NOTES: relative viability (nuclei count vs DMSO), 5 days (fraction); higher = more cells survive
- EXPERIMENTAL_PARAMETERS: first compound 0.04 µM
VALUE_TYPE: relative viability

Prompt: I would be grateful if you could share the reported relative viability for COc1cc(N2CCC(C(N)=O)CC2)ccc1Nc1nc(N)c(Cl)c(Nc2ccccc2S(=O)(=O)C(C)C)n1 [HG-5-88-01] + C[C@@H](Oc1cc(-c2cnn(C3CCNCC3)c2)cnc1N)c1c(Cl)ccc(F)c1Cl [Crizotinib] (partner 1 µM) .
Completion: 1.16

* * *

- Tested on: NCI-H1703
- TEST_METHOD_NOTES: relative viability (nuclei count vs DMSO), 5 days (fraction); higher = more cells survive
- EXPERIMENTAL_PARAMETERS: first compound 4 µM
We begin with a simple list: items and their reported relative viability.
Simply state the number, no unit and no words.

Here are 3 compounds together with their reported answers.
>  <COMPOUND>
Clc1ccc(Nc2nnc(Cc3ccncc3)c3ccccc23)cc1 [Vatalanib] + Cc1nc(NC(=O)N2CCC[C@H]2C(N)=O)sc1-c1ccnc(C(C)(C)C(F)(F)F)c1 [Alpelisib] (partner 2 µM)

>  <relative viability>
0.212

$$$$
>  <COMPOUND>
Clc1ccc(Nc2nnc(Cc3ccncc3)c3ccccc23)cc1 [Vatalanib] + CS(=O)(=O)CCNCc1ccc(-c2ccc3ncnc(Nc4ccc(OCc5cccc(F)c5)c(Cl)c4)c3c2)o1 [Lapatinib] (partner 2 µM)

>  <relative viability>
0.435

$$$$
>  <COMPOUND>
COc1cc(N2CCC(C(N)=O)CC2)ccc1Nc1nc(N)c(Cl)c(Nc2ccccc2S(=O)(=O)C(C)C)n1 [HG-5-88-01] + CS(=O)(=O)CCNCc1ccc(-c2ccc3ncnc(Nc4ccc(OCc5cccc(F)c5)c(Cl)c4)c3c2)o1 [Lapatinib] (partner 2 µM)

>  <relative viability>
0.619

$$$$

--- query ---
Prompt: Hello, I am looking for reported relative viability with NCI-H1703 for COc1cc(N2CCC(C(N)=O)CC2)ccc1Nc1nc(N)c(Cl)c(Nc2ccccc2S(=O)(=O)C(C)C)n1 [HG-5-88-01] + CC1(C)CCC(c2ccc(Cl)cc2)=C(CN2CCN(c3ccc(C(=O)NS(=O)(=O)c4ccc(N[C@H](CCN5CCOCC5)CSc5ccccc5)c(S(=O)(=O)C(F)(F)F)c4)cc3)CC2)C1 [Navitoclax] (partner 0.5 µM) . Could you help?
Completion: 0.762

* * *

- Test system: NCI-H838
- TEST_METHOD_NOTES: relative viability (nuclei count vs DMSO), 5 days (fraction); higher = more cells survive
- EXPERIMENTAL_PARAMETERS: first compound 1.265 µM
We begin with a simple list: items and their reported relative viability.
Simply state the number, no unit and no words.

Here are 6 compounds together with their reported answers.
>  <COMPOUND>
Clc1ccc(Nc2nnc(Cc3ccncc3)c3ccccc23)cc1 [Vatalanib] + Cc1nc(NC(=O)N2CCC[C@H]2C(N)=O)sc1-c1ccnc(C(C)(C)C(F)(F)F)c1 [Alpelisib] (partner 2 µM)

>  <VALUE_TYPE>
relative viability

>  <OBSERVED_MEASUREMENT>
0.864

$$$$
>  <COMPOUND>
Clc1ccc(Nc2nnc(Cc3ccncc3)c3ccccc23)cc1 [Vatalanib] + N=C(N)NC(=N)NCCc1ccccc1 [Phenformin] (partner 250 µM)

>  <VALUE_TYPE>
relative viability

>  <OBSERVED_MEASUREMENT>
0.563

$$$$
>  <COMPOUND>
Clc1ccc(Nc2nnc(Cc3ccncc3)c3ccccc23)cc1 [Vatalanib] + Nc1ncn([C@H]2C[C@H](O)[C@@H](CO)O2)c(=O)n1 [Decitabine] (partner 2 µM)

>  <VALUE_TYPE>
relative viability

>  <OBSERVED_MEASUREMENT>
0.483

$$$$
>  <COMPOUND>
COc1cc(N2CCC(C(N)=O)CC2)ccc1Nc1nc(N)c(Cl)c(Nc2ccccc2S(=O)(=O)C(C)C)n1 [HG-5-88-01] + C[C@]1(O)C[C@@H](c2nc(-c3ccc4ccc(-c5ccccc5)nc4c3)c3c(N)nccn32)C1 [Linsitinib] (partner 1 µM)

>  <VALUE_TYPE>
relative viability

>  <OBSERVED_MEASUREMENT>
0.915

$$$$
>  <COMPOUND>
COc1cc(N2CCC(C(N)=O)CC2)ccc1Nc1nc(N)c(Cl)c(Nc2ccccc2S(=O)(=O)C(C)C)n1 [HG-5-88-01] + COc1cc2c(Oc3ccc(NC(=O)C4(C(=O)Nc5ccc(F)cc5)CC4)cc3F)ccnc2cc1OCCCN1CCOCC1 [Foretinib] (partner 0.25 µM)

>  <VALUE_TYPE>
relative viability

>  <OBSERVED_MEASUREMENT>
0.814

$$$$
>  <COMPOUND>
Clc1ccc(Nc2nnc(Cc3ccncc3)c3ccccc23)cc1 [Vatalanib] + Cc1nc(Nc2ncc(C(=O)Nc3c(C)cccc3Cl)s2)cc(N2CCN(CCO)CC2)n1 [Dasatinib] (partner 0.075 µM)

>  <VALUE_TYPE>
relative viability

>  <OBSERVED_MEASUREMENT>
0.275

$$$$

Prompt: I would be grateful if you could share the reported relative viability for Clc1ccc(Nc2nnc(Cc3ccncc3)c3ccccc23)cc1 [Vatalanib] + C[C@@H](Oc1cc(-c2cnn(C3CCNCC3)c2)cnc1N)c1c(Cl)ccc(F)c1Cl [Crizotinib] (partner 1 µM) .
Completion: 0.73

Prompt: I would be grateful if you could share the reported relative viability for Clc1ccc(Nc2nnc(Cc3ccncc3)c3ccccc23)cc1 [Vatalanib] + NC(=O)Nc1cc(-c2cccc(F)c2)sc1C(=O)N[C@H]1CCCNC1 [AZD7762] (partner 0.2 µM) .
Completion: 0.867

Prompt: I would be grateful if you could share the reported relative viability for COc1cc(N2CCC(C(N)=O)CC2)ccc1Nc1nc(N)c(Cl)c(Nc2ccccc2S(=O)(=O)C(C)C)n1 [HG-5-88-01] + CC(C)C[C@H](NC(=O)[C@H](Cc1ccccc1)NC(=O)c1cnccn1)B(O)O [Bortezomib] (partner 0.002 µM) .
Completion: 0.702

Prompt: I would be grateful if you could share the reported relative viability for Clc1ccc(Nc2nnc(Cc3ccncc3)c3ccccc23)cc1 [Vatalanib] + O=C(CCCCCCC(=O)Nc1ccccc1)NO [Vorinostat] (partner 1 µM) .
Completion: 0.62
